Cited source for all entries: patent US8017612B2

target: HCV polymerase (NS5B) type 1a (Hepatitis C virus genotype 1a, UniProt P26664); construct: made in house; host or cells: Escherichia coli (by the 'similar method' of the 1b enzyme); assay: Assay of enzyme (HCV polymerase) inhibitory activity, type 1a enzyme; format: biochemical, HCV type 1a (cloned from the blood of patients); details: HCV polymerase inhibitory activity (IC50), 1a, type 1a enzyme 1.5 μg/ml, 25° C., 60 min
pIC50: −log10 of the molar value. Counter-ions that a name gives are not always drawn.
Reported pIC50 values follow for various molecules
READOUT_NAME: pIC50

[
  {
    "MOLECULE": "CC(C)c1ccc(CNC(=O)[C@H]2CN(C(=O)c3ccncc3)CCN2S(=O)(=O)c2ccc(C(F)(F)F)cc2)cc1",
    "TESTED_ON": "HCV polymerase (NS5B) type 1a (Hepatitis C virus genotype 1a, UniProt P26664)",
    "READOUT_NAME": "pIC50",
    "OBSERVED_RESULT": "< 6.00"
  },
  {
    "MOLECULE": "CC(=O)N1CCN(S(=O)(=O)c2ccc([N+](=O)[O-])cc2)C(C(=O)NCc2ccc(C(F)(F)F)cc2)C1 (stereo not shown)",
    "TESTED_ON": "HCV polymerase (NS5B) type 1a (Hepatitis C virus genotype 1a, UniProt P26664)",
    "READOUT_NAME": "pIC50",
    "OBSERVED_RESULT": "< 6.00"
  },
  {
    "MOLECULE": "COC(=O)CN1CCN(S(=O)(=O)c2ccc(I)cc2)C(C(=O)NCc2ccc(N(C)C)cc2)C1 (stereo not shown)",
    "TESTED_ON": "HCV polymerase (NS5B) type 1a (Hepatitis C virus genotype 1a, UniProt P26664)",
    "READOUT_NAME": "pIC50",
    "OBSERVED_RESULT": "< 6.00"
  },
  {
    "MOLECULE": "CC(C)c1ccc(CNC(=O)[C@H]2CN(C(=N)N)CCN2S(=O)(=O)c2ccc(C(F)(F)F)cc2)cc1 [Example 313, hydrochloride]",
    "TESTED_ON": "HCV polymerase (NS5B) type 1a (Hepatitis C virus genotype 1a, UniProt P26664)",
    "READOUT_NAME": "pIC50",
    "OBSERVED_RESULT": "> 7.00"
  }
]
